- assay-target: Cynomologus Monkey Bv8 (Genentech; PUR21590) (cynomolgus monkey)
- Sequence (Q9HC23 other isoform, or with tags, fused parts or gaps): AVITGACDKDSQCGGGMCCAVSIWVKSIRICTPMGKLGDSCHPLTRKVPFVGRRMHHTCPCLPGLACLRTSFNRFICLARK
- assay-explanation: SPR (BIAcore 3000, 25 C): cynomolgus monkey Bv8 coupled to CM5 chip, IgG injected; 1:1 Langmuir fit
measured-parameter: kon (M⁻¹ s⁻¹)
One number for each entry, in M⁻¹ s⁻¹.

Return reported kon values for all items listed beneath this line.
1. chimeric 2G9 anti-Bv8 antibody (IgG) (antibody, V domains shown, also called chimeric 2G9 IgG) VH: EVQLQQSGPEVVKTGASVKISCKASGYSFTDYDMHWVKQSQGKSLEWIGYISCYNGATTYNQKFKGKATFTVDKSSTTAYMQFNSLTSEDSAVYYCARDGNYGEAYAMDYWGQGTSLTVSS VL: DIVLTQSPASLAVSLGQRATISCKASQSVDYDGDSYMNWYQQKPGQPPKLLIYAASNLESGIPARFSGSGSGTDFTLNIHPVEEEDAATYYCQQINEDPFTFGQGTKVEIK
2. h2G9.K4G1.v19 IgG (antibody, V domains shown, Variable domains only; IgG, constant regions not described; claims 6 and 7); also called humanized 2G9 variant 19) VH: EVQLVQSGAEVKKPGASVKVSCKASGYSLTNYDMHWVRQAPGQGLEWIGYIHSYSGSTLYNQKFKGRVTITVDKSTSTAYLELSSLRSEDTAVYYCARDSNYGEAYAMDYWGQGTLVTVSS VL: DIVMTQSPDSLAVSLGERATINCKASQSVDYSGDSYMNWYQQKPGQPPKLLIYAASNLESGVPDRFSGSGSGTDFTLTISSLQAEDVAVYYCQQINEDPFTFGQGTKVEIKR
3. h2G9.K4G1.Polish IgG (antibody, V domains shown, IgG; constant regions not described for the humanized antibodies; also called parental polished K4G1 molecule) VH: EVQLVQSGAEVKKPGASVKVSCKASGYSFTDYDMHWVRQAPGQGLEWIGYISSYSGATTYNQKFKGRVTITVDKSTSTAYLELSSLRSEDTAVYYCARDSNYGEAYAMDYWGQGTLVTVSS VL: DIVMTQSPDSLAVSLGERATINCKASQSVDYSGDSYMNWYQQKPGQPPKLLIYAASNLESGVPDRFSGSGSGTDFTLTISSLQAEDVAVYYCQQINEDPFTFGQGTKVEIK
4. h2G9.K4G1.v55 IgG (antibody, V domains shown, Variable domains only; IgG, constant regions not described; claims 8 and 9); also called humanized 2G9 variant 55) VH: EVQLVQSGAEVKKPGASVKVSCKASGYSFTDYDMHWVRQAPGQGLEWIGYISSYSGATTYNQKFKGRVTITVDKSTSTAYLELSSLRSEDTAVYYCARDSNYGEAYAMDYWGQGTLVTVSS VL: DIVMTQSPDSLAVSLGERATINCKASQSLDYYHYSYMNWYQQKPGQPPKLLIYAASNRESGVPDRFSGSGSGTDFTLTISSLQAEDVAVYYCQQINEDPFTFGQGTKVEIKR

646000
501000
454000
775000
